# target: SARS-CoV-2 RBD subunit (recombinant) (SARS-CoV-2 Wuhan-Hu-1, UniProt P0DTC2)
reportedMetric: binding result

| binder | reportedMetric | result |
| --- | --- | --- |
| C68.236 (antibody, V domains shown) VH: QVQVVQSGAELKKPGASVKVSCKAPGHTFTIYAMHWVRQAPGQRLEWMGWINAGNGDTKYSQKFQGRVTITRDTSASTAYMELSSLRSEDTAVYYCASSGSRRFQVDYFDYWGQGTLVTVSS VL: DIQLTQSPSTLSASVGDRVTITCRASQSIRSWLAWYQQKPGKAPKLLIYDASSLESGVPSRFSGSGSGTEFTLTISSLQPDDFATYYCQQYNSYPWTFGQGTKVEIK | binding result | binds |
| C68.102 (antibody, V domains shown) VH: QLQLQESGPGLLKPSETLSLTCTVSGGSISSSRYYWGWIRQPPGKGLEWIGSVYYSGTTYYNPSLKSRVTISVDASKNQFSLRLSSVSAADTAVYYCARRLGAIWDWGQGTRVTVSS VL: DIQLTQSPSSLSASVGDRVTITCRASQGISNSLAWYQQKPGKAPKLLLYAASTLESGVPSRFSGSGSGTDYTLTISSLQPEDFAAYYCQQYYSTPTFGQGTKVEIK | binding result | binds |
| C68.304 (antibody, V domains shown) VH: EVQLVESGGGVVQPGRSLRLSCAASGFIFSNYDMHWVRQAPGKGLEWVAVIWYDGSNKYYADSVKGRFTISRDNSKNTLYLQMNSLRADDTAMYYCSRHDSGTYYYFDSWGQGTLVTVSS VL: LTVVTQEPSFSVSPGGTVTLTCGLSSGSVSTSYYPSWYQQTPGQPPRTLIYTTITRSSGVPDRFSGSILGNKAALTITGAQGDDESDYYCVLYMGSGNWVFGGGTKLTVL | binding result | binds |
